- test: Oral absorption (p.o. pharmacokinetics, Table 25)
- Format: in vivo, Rats
- experimental-setup: rat, plasma, 10 mg/kg, 10 MPK, 0-8 hr p.o., read-out: AUC (0-last h) p.o.
Recorded AUC(0-t) values for a group of molecules are listed next.
Answer format reminder: number followed by unit.

In [3]: df
Out[3]:
                                   molecule  endpoint_result
0  Oc1ccc(OC[C@@H](O)CN2CCN(c3ccc(Cl)cc3)CC2)cc1 [drawing 815]     56.4 ng·h/mL
1  NC(=O)Nc1ccc(OC[C@@H](O)CN2CCN(c3ccc(Cl)cc3)CC2)cc1 [drawing 810]     8450 ng·h/mL
2  Cc1ccc(N2CCN(C[C@H](O)COc3ccc4[nH]c(=O)oc4c3)CC2)cc1 [drawing 813]      284 ng·h/mL

Now, please, on to the next molecule.
The molecule O=c1[nH]c2ccc(OC[C@@H](O)CN3CCN(c4ccc(Cl)cc4)CC3)cc2o1 [drawing 814] showed AUC(0-t) equal to 132 ng·h/mL

###

- test: Plasma half-life (i.v./i.p. pharmacokinetics, Table 23)
- Format: in vivo, Rats
- experimental-setup: rat, ip, 10 mg/kg, 10 MPK i.p., 15 m
measurement-kind: Cmax at 15 min

Item: O=C(COc1ccc2[nH]c(=O)oc2c1)N1CCN(c2ccc(Cl)c(Cl)c2)CC1 [drawing 797] | Cmax at 15 min: 960 ng/mL

###

Each item that follows carries a reported Cmax at 30 min.
- test: Plasma half-life (i.v./i.p. pharmacokinetics, Table 23)
- Type: in vivo, Rats
- experimental-setup: rat, iv, 3 mg/kg, 3 MPK i.v., 30 m
Hi! Could you send only the number? It should be in µg/mL, unit omitted.

In the examples that follow, each entry is paired with its recorded Cmax at 30 min.
>>> df
                                   molecule  measurement_kind  units  endpoint_result
0  O=C1N(C[C@H](O)COc2ccc(O)cc2)CCN1c1ccc(Cl)cc1 [drawing 795]    Cmax at 30 min  µg/mL            0.377
1  Oc1ccc(OC[C@@H](O)CSc2nc3cc(Cl)c(Cl)cc3[nH]2)cc1 [drawing 799]    Cmax at 30 min  µg/mL            0.413

Next:
The value of Cmax at 30 min measured for the molecule O=c1[nH]c2ccc(OC[C@@H](O)CSc3nc4cc(Cl)c(Cl)cc4[nH]3)cc2o1 [drawing 798] turned out to be 0.398

###

Measured concentration at 30 min of individual entries
- test: Plasma and brain exposure assessment
- Format: in vivo, Mice
- experimental-setup: mouse, ip; mice 10 mg/kg i.p.; calculated from the brain:plasma ratio determined by LC-MS/MS
- Description: Mice were administered a dose of test compound (10 mg/kg by i.p.) and blood and brain tissue samples collected at the indicated times post drug administration (n=3-5). […] The supernatant fractions were analyzed by LC-MS/MS operating in multiple reaction monitoring mode (MRM) and analyzed for the parent compound to determine the plasma or brain concentration. […]
Write it as a number; the unit nM goes unstated.

# example entries with known answers
>>> df
                              line_notation  units  endpoint_result
0  O=C1N(C[C@H](O)COc2ccc(O)cc2)CCN1c1ccc(Cl)cc1     nM               64
1  O=C(COc1ccc2[nH]c(=O)oc2c1)N1CCN(c2ccc(Cl)c(Cl)c2)CC1     nM               48

Query compound follows.
response.value for NC(=O)Nc1ccc(OC[C@@H](O)CN2CCN(c3ccc(Cl)cc3)CC2)cc1 (field: concentration at 30 min) = 130
